Just for reference, patent US20240130368A1 is where these values come from.

- Test system: Ambrosia artemisiifolia
- EXPERIMENT_NOTES: Test Example 1: seeds on filter paper moistened with chemical solution, herbicidal effect visually evaluated
- Type: in vivo
- RUN_CONDITIONS: Ambrosia artemisiifolia, 144 h; compound applied alone, amount of active ingredient 3.1 ppm; visually evaluated 6 days after treatment; read-out: Herbicidal effect (%)
RESULT_TYPE: pest or weed control at 3.1 ppm
# number then unit; no other words

Answered cases to consult:
{"COMPOUND": "COC(=O)NS(=O)(=O)c1ccc(N)cc1", "ASSAY_SYSTEM": "Ambrosia artemisiifolia", "pest or weed control at 3.1 ppm": "20%"}
{"COMPOUND": "Cc1ccccc1CO[C@@H]1C[C@@]2(C(C)C)CC[C@]1(C)O2 (racemic)", "ASSAY_SYSTEM": "Ambrosia artemisiifolia", "pest or weed control at 3.1 ppm": "50%"}
{"COMPOUND": "CN(C)c1nc(=O)n(C2CCCCC2)c(=O)n1C", "ASSAY_SYSTEM": "Ambrosia artemisiifolia", "pest or weed control at 3.1 ppm": "10%"}

Next compound, pest or weed control at 3.1 ppm to be filled in.
Requested field: pest or weed control at 3.1 ppm. Item: Nc1nc[nH]n1
20%

====

- System: Ambrosia artemisiifolia
- EXPERIMENT_NOTES: Test Example 1: seeds on filter paper moistened with chemical solution, herbicidal effect visually evaluated
- Type: in vivo
- RUN_CONDITIONS: Ambrosia artemisiifolia, 144 h, read-out: Herbicidal effect (%), applied alone, amount of active ingredient 12.5 ppm; visually evaluated 6 days after treatment
The following molecules are listed with their measured pest or weed control at 12.5 ppm values.
Just the number please, in %, no unit attached.

{"MOLECULE": "COC(=O)C(C)Oc1ccc(Oc2ncc(C(F)(F)F)cc2Cl)cc1 (stereo not shown)", "ASSAY_SYSTEM": "Ambrosia artemisiifolia", "pest or weed control at 12.5 ppm, %": 10}
{"MOLECULE": "O=C(O)CNCP(=O)(O)O [Glyphosate]", "ASSAY_SYSTEM": "Ambrosia artemisiifolia", "pest or weed control at 12.5 ppm, %": 20}
{"MOLECULE": "CP(=O)(O)CCC(N)C(=O)O (stereo not shown) [Glufosinate-ammonium]", "ASSAY_SYSTEM": "Ambrosia artemisiifolia", "pest or weed control at 12.5 ppm, %": 20}

Consider the record given below.
# query: pest or weed control at 12.5 ppm of entry CCSC(C)CC1CC(=O)C(/C(CC)=N/OC/C=C/Cl)=C(O)C1 (stereo not shown)
0

====

- Tested on: Ambrosia artemisiifolia
- EXPERIMENT_NOTES: Test Example 1: seeds on filter paper moistened with chemical solution, herbicidal effect visually evaluated
- Type: in vivo
- RUN_CONDITIONS: Ambrosia artemisiifolia, 144 h; compound applied alone, amount of active ingredient 0.2 ppm; visually evaluated 6 days after treatment; read-out: Herbicidal effect (%)
Each entry below carries its recorded pest or weed control at 0.2 ppm.
Report as a plain number; the unit % is understood.

{"COMPOUND": "CCC(C)(CC)c1cc(NC(=O)c2c(OC)cccc2OC)on1", "ASSAY_SYSTEM": "Ambrosia artemisiifolia", "MEASUREMENT_UNIT": "%", "pest or weed control at 0.2 ppm": 75}
{"COMPOUND": "O=C(Nc1ccc(F)cc1F)c1cccnc1Oc1cccc(C(F)(F)F)c1", "ASSAY_SYSTEM": "Ambrosia artemisiifolia", "MEASUREMENT_UNIT": "%", "pest or weed control at 0.2 ppm": 10}
{"COMPOUND": "CC(C)N(C(=O)COc1nnc(C(F)(F)F)s1)c1ccc(F)cc1 [Flufenacet, reference compound]", "ASSAY_SYSTEM": "Ambrosia artemisiifolia", "MEASUREMENT_UNIT": "%", "pest or weed control at 0.2 ppm": 20}

Could you tell me which pest or weed control at 0.2 ppm is on file for CS(=O)(=O)c1ccc(C(=O)C2C(=O)CCCC2=O)c([N+](=O)[O-])c1 ?
50
